Where do the numbers come from? From patent US20230257396A1.

biological target: kinases (Homo sapiens, UniProt P10721, D816H); construct: purchased Eurofins/DiscoveRx; host or cells: E. coli BL21-derived host (T7 phage display) for most kinases; HEK-293 for the rest; test: KINOMEscan kinase binding assay (Eurofins/DiscoveRx), % Ctrl; conditions: 1 μM; KIT(D816H)
Sequence (P10721 26-976 D816H): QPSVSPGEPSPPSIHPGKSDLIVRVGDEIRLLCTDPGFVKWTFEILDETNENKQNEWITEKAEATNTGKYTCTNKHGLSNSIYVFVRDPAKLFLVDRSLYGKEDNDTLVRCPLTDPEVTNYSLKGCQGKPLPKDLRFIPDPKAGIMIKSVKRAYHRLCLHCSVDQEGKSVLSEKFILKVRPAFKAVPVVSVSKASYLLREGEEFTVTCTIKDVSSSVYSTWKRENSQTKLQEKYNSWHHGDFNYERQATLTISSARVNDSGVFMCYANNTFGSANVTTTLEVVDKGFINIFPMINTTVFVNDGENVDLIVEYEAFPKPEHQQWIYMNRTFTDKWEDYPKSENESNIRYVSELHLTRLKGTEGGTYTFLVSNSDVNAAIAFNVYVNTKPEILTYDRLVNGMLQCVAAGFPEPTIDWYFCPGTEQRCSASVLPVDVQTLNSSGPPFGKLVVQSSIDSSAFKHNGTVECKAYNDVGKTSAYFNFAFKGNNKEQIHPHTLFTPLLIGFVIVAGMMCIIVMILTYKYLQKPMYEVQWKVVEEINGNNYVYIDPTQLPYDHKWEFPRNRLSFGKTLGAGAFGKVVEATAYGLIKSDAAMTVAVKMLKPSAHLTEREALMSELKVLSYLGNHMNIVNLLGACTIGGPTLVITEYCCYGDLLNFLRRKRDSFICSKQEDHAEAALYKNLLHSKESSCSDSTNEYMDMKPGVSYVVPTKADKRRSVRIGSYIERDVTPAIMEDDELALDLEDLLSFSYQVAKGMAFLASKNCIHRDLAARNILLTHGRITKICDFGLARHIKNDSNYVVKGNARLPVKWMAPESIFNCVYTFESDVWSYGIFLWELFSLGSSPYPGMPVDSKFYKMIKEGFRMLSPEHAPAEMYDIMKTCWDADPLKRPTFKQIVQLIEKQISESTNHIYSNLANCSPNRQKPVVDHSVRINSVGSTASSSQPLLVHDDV
Recorded % Ctrl, KIT(D816H), one value per entry.
Dear colleague, please send the value followed by its unit.

// worked examples, % Ctrl, KIT(D816H) included
> print(dat)
                              smiles.record                                    system      endpoint.label   reported
1  Cc1cc2c([nH]1)/C=C1\C(=O)Nc3ccc(cc31)-c1ccnn1CCOCCNC2=O  kinases (Homo sapiens, UniProt P10721, D816H)  % Ctrl, KIT(D816H)  83 % Ctrl
2  Cc1cc2c([nH]1)/C=C1\C(=O)Nc3cc(Cl)c(cc31)OCCO[C@@H](C(=O)N(C)C)CN(C)C2=O  kinases (Homo sapiens, UniProt P10721, D816H)  % Ctrl, KIT(D816H)  74 % Ctrl
3  CNC(=O)[C@H]1CN(C)C(=O)c2cc(C)[nH]c2/C=C2\C(=O)Nc3cc(Cl)c(cc32)OCCO1  kinases (Homo sapiens, UniProt P10721, D816H)  % Ctrl, KIT(D816H)  80 % Ctrl

Which % Ctrl, KIT(D816H) value belongs to Cc1cc2c([nH]1)/C=C1\C(=O)Nc3cc(Cl)c(cc31)OCCO[C@@H](C(=O)NC1CCNCC1)CN(C)C2=O ?
56 % Ctrl

Which % Ctrl, KIT(D816H) value belongs to Cc1cc2c([nH]1)/C=C1\C(=O)Nc3ccc(cc31)CN(C)C(=O)COCCNC2=O ?
7 % Ctrl

Which % Ctrl, KIT(D816H) value belongs to Cc1cc2c([nH]1)/C=C1\C(=O)Nc3ccc(cc31)-c1ccnn1CCOCCN(C)C2=O ?
38 % Ctrl

Which % Ctrl, KIT(D816H) value belongs to Cc1cc2c([nH]1)/C=C1\C(=O)Nc3ccc(cc31)OCCOCCN(C)C2=O ?
41 % Ctrl

Which % Ctrl, KIT(D816H) value belongs to Cc1cc2c([nH]1)/C=C1\C(=O)Nc3cnc(nc31)N(C)CCCOCCN(C)C2=O ?
100 % Ctrl

Which % Ctrl, KIT(D816H) value belongs to Cc1cc2c([nH]1)/C=C1\C(=O)Nc3ccc(cc31)O[C@@H](C)COCCN(C)C2=O ?
87 % Ctrl

Which % Ctrl, KIT(D816H) value belongs to Cc1cc2c([nH]1)/C=C1\C(=O)Nc3ccc(cc31)-c1ccnn1CCNCCNC2=O ?
65 % Ctrl

Which % Ctrl, KIT(D816H) value belongs to Cc1cc2c([nH]1)/C=C1\C(=O)Nc3ccc(cc31)-c1c(C)n[nH]c1CNCCN(C)C2=O ?
60 % Ctrl

Which % Ctrl, KIT(D816H) value belongs to Cc1cc2c([nH]1)/C=C1\C(=O)Nc3ccc(cc31)-c1c(noc1C)COCCN(C)C2=O ?
87 % Ctrl

Which % Ctrl, KIT(D816H) value belongs to Cc1cc2c([nH]1)/C=C1\C(=O)Nc3cnc(cc31)-c1cnn(C)c1COCCNC2=O ?
100 % Ctrl

* * *

biological target: kinases (Homo sapiens, UniProt P10721, T670I/V559D); construct: purchased Eurofins/DiscoveRx; host or cells: E. coli BL21-derived host (T7 phage display) for most kinases; HEK-293 for the rest; assay: KINOMEscan kinase binding assay (Eurofins/DiscoveRx), % Ctrl; conditions: 1 μM; KIT(V559D, T670I)
Sequence (P10721 26-976 V559D/T670I): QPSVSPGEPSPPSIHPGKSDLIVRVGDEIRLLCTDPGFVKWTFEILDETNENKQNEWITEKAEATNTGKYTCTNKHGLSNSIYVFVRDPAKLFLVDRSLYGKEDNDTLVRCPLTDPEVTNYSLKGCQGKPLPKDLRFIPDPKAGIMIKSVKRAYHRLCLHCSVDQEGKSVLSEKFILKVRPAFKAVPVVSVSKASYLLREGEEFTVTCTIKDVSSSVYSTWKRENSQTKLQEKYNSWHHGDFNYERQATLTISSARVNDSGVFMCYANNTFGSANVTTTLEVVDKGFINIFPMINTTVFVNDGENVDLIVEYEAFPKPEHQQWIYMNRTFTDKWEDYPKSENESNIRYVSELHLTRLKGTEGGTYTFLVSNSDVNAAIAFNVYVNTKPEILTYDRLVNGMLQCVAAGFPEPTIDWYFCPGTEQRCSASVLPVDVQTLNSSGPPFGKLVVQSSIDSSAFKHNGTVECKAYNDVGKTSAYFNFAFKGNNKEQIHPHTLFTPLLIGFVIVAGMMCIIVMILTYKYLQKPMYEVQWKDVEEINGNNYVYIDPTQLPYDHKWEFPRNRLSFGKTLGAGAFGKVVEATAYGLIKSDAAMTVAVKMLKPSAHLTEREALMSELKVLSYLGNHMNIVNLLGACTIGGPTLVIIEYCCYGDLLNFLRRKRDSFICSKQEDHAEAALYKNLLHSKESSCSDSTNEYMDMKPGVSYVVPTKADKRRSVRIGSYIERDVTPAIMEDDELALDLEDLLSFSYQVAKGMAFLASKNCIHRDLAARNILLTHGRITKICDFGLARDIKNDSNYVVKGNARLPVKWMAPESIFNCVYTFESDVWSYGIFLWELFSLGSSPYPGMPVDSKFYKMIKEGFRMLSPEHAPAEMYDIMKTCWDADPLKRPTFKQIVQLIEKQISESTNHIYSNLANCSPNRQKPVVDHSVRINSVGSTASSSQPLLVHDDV
ENDPOINT_LABEL: % Ctrl, KIT(V559D, T670I) (% Ctrl)
Reply numerically in % Ctrl, unit not repeated.

> print(dat)
                                   compound  reported
1  Cc1cc2c([nH]1)/C=C1\C(=O)Nc3ccc(cc31)-c1c(noc1C)COCCN(C)C2=O [Ex. 128]        71
2  Cc1cc2c([nH]1)/C=C1\C(=O)Nc3cc(Cl)c(cc31)OCCO[C@@H](C(=O)NC1CCNCC1)CN(C)C2=O [Ex. 134]       3.9
3  Cc1cc2c([nH]1)/C=C1\C(=O)Nc3ccc(cc31)-c1ccnn1CCOCCN(C)C2=O [Ex. 41]        30

Shift focus to the following entry.
Which % Ctrl, KIT(V559D, T670I) value belongs to Cc1cc2c([nH]1)/C=C1\C(=O)Nc3ccc(cc31)OCCOCCNC2=O [Ex. 129] ?
100
